Origin of values: patent US20220280594A1

# Tested on: human prostate cancer cells (22RV1)
# runDescription: scratch assay, migration of 22RV1 cells
# Assay type: cell-based
# reportedConditions: 22RV1, 10 μM, 48 hours; control group 25.41 ± 5.01
# Procedure: In the scratch assay, the cell migration rate was negatively correlated with the inhibitory effect of the drug component on tumor cell migration ability. […] ImageJ software was used to count the migration distance of the cells, and the cell migration rate was calculated as: cell migration rate (%)=(width of original scratch−width of current scratch)/width of original scratch×100. […]
Ends that are not written are not given here. PEG = not defined here
Below, each entry is listed alongside its reported Migration rate (%) (mean ± SD, P).

substance: N50: SEQ ID NO: 1 with N18R, addition of 2 amino acid at the carboxyl terminal, PEG modification at the amino terminal ({PEG}-YRVRFLAKENVTQDAEDRCT; reading uncertain)
assaySystem: human prostate cancer cells (22RV1)
Migration rate (%) (mean ± SD, P): 6.20 ± 3.31,** %
--
substance: N15: SEQ ID NO: 1 with substitution N18R and addition of one amino acid to the carboxyl terminal (YRVRFLAKENVTQDAEDRC)
assaySystem: human prostate cancer cells (22RV1)
Migration rate (%) (mean ± SD, P): 8.36 ± 2.03,** %
--
substance: N16: SEQ ID NO: 1 with substitution A7R and addition of one amino acid at the carboxyl terminus (YRVRFLRKENVTQDAEDNC)
assaySystem: human prostate cancer cells (22RV1)
Migration rate (%) (mean ± SD, P): 9.75 ± 2.14,** %
--
substance: N7: SEQ ID NO: 1 with addition of one amino acid at the carboxyl terminal and substitution A15R (YRVRFLAKENVTQDREDNC)
assaySystem: human prostate cancer cells (22RV1)
Migration rate (%) (mean ± SD, P): 6.54 ± 2.24,** %
--
substance: N19: SEQ ID NO: 1 with deletion of positions 1-5 and 15-18 and addition of two amino acids at the carboxyl terminal (LAKENVTQDRC)
assaySystem: human prostate cancer cells (22RV1)
Migration rate (%) (mean ± SD, P): 5.36 ± 1.6,** %

Consider N1: polypeptide with the amino acid sequence set forth in SEQ ID NO: 1 (YRVRFLAKENVTQDAEDN) . Its measured Migration rate (%) (mean ± SD, P) is 7.26 ± 3.36,** %

# Migration rate (%) (mean ± SD, P) (substance: N41: SEQ ID NO: 1 with addition of two amino acids at the amino terminal, deletion of position 18, PEG at the carboxyl terminal (FRYRVRFLAKENVTQDAED-{PEG}; reading uncertain) ) is 7.83 ± 1.84,** %

Measured Migration rate (%) (mean ± SD, P), N32: SEQ ID NO: 1 with deletion of positions 1-3, addition of one amino acid and PEG modification at the carboxyl terminal (RFLAKENVTQDAEDNC-{PEG}; reading uncertain) : 8.68 ± 1.66,** %
